Biological target: T1, hIL-18Rα ECD-Fc fusion protein (human, UniProt Q13478 22-329)
T1 construct: extracellular domain; captured on Protein A sensor
T1 sequence (looked up): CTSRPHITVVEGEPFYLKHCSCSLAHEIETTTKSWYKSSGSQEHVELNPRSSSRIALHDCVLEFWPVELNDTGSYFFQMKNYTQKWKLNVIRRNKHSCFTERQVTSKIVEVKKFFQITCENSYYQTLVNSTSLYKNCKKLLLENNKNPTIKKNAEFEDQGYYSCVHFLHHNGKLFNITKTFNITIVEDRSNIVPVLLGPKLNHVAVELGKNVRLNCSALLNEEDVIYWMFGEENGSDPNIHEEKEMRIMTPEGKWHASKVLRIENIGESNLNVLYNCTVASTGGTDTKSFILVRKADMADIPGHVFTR
Assay: BLI (Octet RED96), hIL-18Rα ECD-Fc on Protein A sensor
reported-metric: Kd (nM)

[[record]]
binder = "IL-18 variant polypeptide M23 (ligand) YFPKLRSKLSVIRNLNDQVLFIDQGNRPLFEDMTDSDCRDNAPRTIFIISMYKYSTRRGMAVTISVKCEKISTLSCENKIISFKEMNPPDNIKDTKSDIIFFQRSVPGHDNKMQFESSSYEGYFLACEKERDLFKLILKKEDELGDRSIMFTVQNED"
quantitative_readout = 368

[[record]]
binder = "IL-18 variant polypeptide M29 (ligand) YFPKLMSKLSVIRNLNDQVLFIDQGNRPLFEDMTDSDCRDNAPRTIFIISMYKFSDRRGMAVTISVKCEKISTLSCENKIISFKEMNPPDPIKDTKSDIIFFQRSVPGHDNKMQFESSSYEGYFLACEKERDLFKLILKKEDELGDRSIMFTVQNED"
quantitative_readout = 83.9

[[record]]
binder = "IL-18 variant polypeptide M13 (ligand) YFPKLKSKLSVIRNLNDQVLFIDQGNRPLFEDMTDSDCRDNAPRTIFIISMYKQSIWRGMAVTISVKCEKISTLSCENKIISFKEMNPPDNIKDTKSDIIFFQRSVPGHDNKMQFESSSYEGYFLACEKERDLFKLILKKEDELGDRSIMFTVQNED"
quantitative_readout = 11.6

[[record]]
binder = "IL-18 variant polypeptide M38 (ligand) YFPKLSSKLSVIRNLNDQVLFIDQGNRPLFEDMTDSDCRDNAPRTIFIISMYKWSGARGMAVTISVKCEKISTLSCENKIISFKEMNPPDVIKDTKSDIIFFQISVPGHDNKMQFESSSYEGYFLACEKERDLFKLILKKEDELGDRSIMFTVQNED"
quantitative_readout = 120

[[record]]
binder = "IL-18 variant polypeptide LM1 (ligand, soluble, E. coli-made) YFPKLKSKLSVIRNLNDQVLFIDQGNRPLFEDMTDSDCRDNAPRTIFIISMYKGSGARGMAVTISVKCEKISTLSCENKIISFKEMNPPDNIKDTKSDIIFFQRSVPGHDNKMQFESSSYEGYFLACEKERDLFKLILKKEDELGDRSIMFTVQNED"
quantitative_readout = 86.2

[[record]]
binder = "IL-18 variant polypeptide WM10 (ligand, soluble, E. coli-made) YFPKLKSKLSVIRNLNDQVLFIDQGNRPLFEDMTDSDCRDNAPRTIFIISMYKDSQPRGMAVTISVKCEKISTLSCENKIISFKEMNPPDSIKDTKSDIIFFQRSVPGHDNKMQFESSSYEGYFLACEKERDLFKLILKKEDELGDRSIMFTVQNED"
quantitative_readout = 12.9

[[record]]
binder = "IL-18 variant polypeptide M37 (ligand) YFPKLGSKLSVIRNLNDQVLFIDQGNRPLFEDMTDSDCRDNAPRTIFIISMYKQSVWRGMAVTISVKCEKISTLSCENKIISFKEMNPPDNIKDTKSDIIFFQRSVPGHDNKMQFESSSYEGYFLACEKERDLFKLILKKEDELGDRSIMFTVQNED"
quantitative_readout = 21.8

